targetDesc: Fyn (UniProt P06241)
Sequence (P06241 whole entry, looked up): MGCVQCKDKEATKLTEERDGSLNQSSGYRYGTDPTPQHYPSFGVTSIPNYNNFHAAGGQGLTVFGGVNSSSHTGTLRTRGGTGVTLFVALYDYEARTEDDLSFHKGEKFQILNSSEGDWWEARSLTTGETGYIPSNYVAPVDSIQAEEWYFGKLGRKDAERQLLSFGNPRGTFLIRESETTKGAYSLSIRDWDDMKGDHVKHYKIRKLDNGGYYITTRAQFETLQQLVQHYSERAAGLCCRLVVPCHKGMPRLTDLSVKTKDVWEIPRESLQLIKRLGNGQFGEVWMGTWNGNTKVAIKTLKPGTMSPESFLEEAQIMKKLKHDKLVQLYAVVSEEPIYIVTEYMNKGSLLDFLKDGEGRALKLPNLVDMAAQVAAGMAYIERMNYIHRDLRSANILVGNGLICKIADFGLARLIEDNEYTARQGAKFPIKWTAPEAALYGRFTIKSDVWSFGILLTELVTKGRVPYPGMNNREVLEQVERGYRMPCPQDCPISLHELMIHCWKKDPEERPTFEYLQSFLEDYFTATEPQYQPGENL
assayMethodText: phosphorylation enrichment, bacterial display (enrichment ratio); higher = better substrate or ligand; peptides without Tyr show the background;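 also: 11-residue human phosphosite peptides and single-mutation variants displayed on the E. coli surface, counted by deep sequencing, each peptide's frequency after selection divided by its frequency in the unselected input library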;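 also: frequency after pTyr selection over input frequency; kinase dosed for 20-30% of maximal phosphorylation in three min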
Hi, to clarify the labels: 1.0 covers phosphorylation enrichment from 0.6 upward, 0.0 covers anything below 0.6.

INSERT INTO assay_data (biosequence, labelvalue) VALUES
  ('ISIFHYAKGQP [MPZ_Y82]', 0.0),
  ('DYTEAYNSKIK [CLK1_Y305_P307S]', 0.0),
  ('ECKHLYSRKEG [PTPN11_Y263_L261H]', 0.0),
  ('EALSLYTKLMN [STAM_Y371]', 0.0),
  ('FGCGMYSHLQG [LGR4_Y848_D844G_YF]', 1.0),
  ('DKTGEYPVPLT [ACADM_Y73_I78T]', 0.0),
  ('VCDALYPPGPP', 0.0),
  ('LLDGEYFTLQI [TP53_Y327_P322L]', 1.0),
  ('IIEDPYFGNDS [ACP1_Y132_YF]', 1.0),
  ('CNTIHYNFMCN [TP53_Y234_T230N_YF]', 0.0),
  ('RQNQEYEILLD [KRT39_Y379]', 1.0),
  ('DAVCFYRMENA [NPHS2_Y195_I192V_YF]', 1.0),
  ('NDDDVYRSLEE [VAV2_Y142]', 0.0),
  ('SVVVPCEPPEV [TP53_Y220_Y220C]', 0.0),
  ('GAEIVYKSPVV [MAPT_Y711]', 0.0),
  ('LEKRAYICAHP [ACAD9_Y611]', 0.0),
  ('MACDRYVAICS [OR8D4_Y123]', 0.0),
  ('TDGIAYEFRVI', 0.0),
  ('QDGYSYLSRQM [LDLR_Y847_P848L]', 0.0),
  ('ELELLYLDRNS [NYX_Y284]', 0.0),
  ('KHTLSYVDVGT [SDHA_Y629]', 0.0),
  ('HYEFKYVINAI [MAOA_Y268_C266F]', 0.0),
  ('TFEFRYLEDRD [CNOT3_Y746_YF]', 1.0),
  ('SVETPYVSVTF [NDRG2_Y47_G48V]', 1.0),
  ('VVGMLYVGGLP [LAMA2_Y2886]', 0.0),
  ('LFMGDYVGRGF [PPP2CA_Y86_D88G_YF]', 1.0),
  ('AHARMYGVLPW [PLP1_Y207_D203H]', 1.0),
  ('GQLIFYAPPEW [CNTN6_Y315]', 0.0),
  ('HVSISYDIPPT [GAB1_Y307]', 1.0);

###

Tested on: c-Abl (mouse)
assayMethodText: phosphorylation enrichment, bacterial display (enrichment ratio); higher = better substrate or ligand; peptides without Tyr show the background
propertyMeasured: phosphorylation enrichment

INSERT INTO results (biosequence, targetdesc, reportedresult) VALUES
  ('SVVVLYEPPEV [TP53_Y220_P219L]', 'c-Abl (mouse)', 1.19),
  ('LTSKPYAFTAW [NDUFS1_Y236_R241W]', 'c-Abl (mouse)', 0.503),
  ('AGTILSHAHLD [ASS1_Y291_Y291S]', 'c-Abl (mouse)', 0.622),
  ('TTPGPYRSIFF [MPG_Y71_YF]', 'c-Abl (mouse)', 0.706),
  ('KKRSSYGNSSD [SELENOK_Y52_R50S]', 'c-Abl (mouse)', 0.489),
  ('REVPVYIGEDS [SYNM_Y460]', 'c-Abl (mouse)', 0.595),
  ('TGDFGYRAPGY [TNS2_Y668]', 'c-Abl (mouse)', 0.533);
